Origin of the recorded values: PubChem BioAssay (NCI)

- Test system: OVCAR-5 ovarian
- experiment.description: NCI-60 one-dose screen, 48 h
- settings: 10 µM unless noted
Compounds without any hit were thinned out: in the full panel of roughly 83,000, 20% have a hit. Calls of active or inactive are those of the source. Rule for the calls: active = growth percent below 10; inactive = the rest.
Write down one outcome, taken from Y for active, N for inactive

Reference set, count: 2
S=C(N/N=C/c1ccccn1)Nc1ccccn1: N
CCC1OC(OC)C=CC1=O (configuration not stated): N

Entry CCOc1ccc(-c2nc3ccc(-c4nc5ccc(N6CCN(C)CC6)cc5[nH]4)cc3[nH]2)cc1 : call = ?
Y

Entry CCC(CC)COC(=O)c1ccc(O)c(O)c1 : call = ?
N

====

- Tested on: K-562 leukemia
- experiment.description: NCI-60 one-dose screen, 48 h
- settings: 10 µM unless noted
This is part of a sample that, as a whole, favours compounds with a hit. Of some 83,000 tested, about 20% had one in any assay. Calls of active or inactive are those of the source. How the source made its calls: active means growth percent below 10; inactive means the rest.
Write down one outcome, taken from active, inactive

NC(=O)/C=C/C(=O)c1c(Cl)cccc1Cl: active
C[N+](C)=c1ccc2nc3c(cc(NCCCNc4cc5oc6cc(=[N+](C)C)ccc-6nc5c5ccccc45)c4ccccc43)oc-2c1: active
CC(=Nc1ccc(N(C)C)cc1)c1ccccc1: inactive
O=C(Nc1ccc(F)cc1)ON=C1CCCCC1: inactive
O=Nc1ccccc1N=O: inactive

Entry CN(C)c1ccc(N=Nc2cccc3ccccc23)cc1 : call = ?
inactive

Entry O=C1C2=C(Nc3cc([N+](=O)[O-])ccc3N2)OC1c1c2ccccc2cc2ccccc12 (stereo unspecified) : call = ?
inactive

====

- System: HS 578T breast
- experiment.description: NCI-60 one-dose screen, 48 h (100 = growth as untreated, 0 = no growth, -100 = all killed)
- settings: 10 µM unless noted
About 83,000 compounds went through this panel and 20% of them were active in at least one assay; those are over-represented in the sample as a whole.
outcome.measure: growth (%)
One number for each entry, in %.

Cc1ccnc(NC(c2ccccc2)c2ccc3cccnc3c2O)c1 (stereo not given): 66.9

State the recorded growth for every item in the following list.
1. O[C@H]1[C@H]2c3cc4c(cc3CN3CCC(=C[C@@H]1O)[C@H]23)OCO4
2. Cc1ccc(N=C=C(c2ccccc2)c2ccccc2)cc1
3. CCCCCCCCCCCCCCCCCCOP(=O)([O-])OC1CC[N+](C)(C)CC1
4. O=C1NC(=O)/C(=C/C=C/c2ccccc2)S1

[42.7, 91.1, 11.8, 93.3]

====

- Test system: SNB-75 CNS
- experiment.description: NCI-60 one-dose screen, 48 h
- settings: 10 µM unless noted
The panel holds about 83,000 compounds, 20% with a hit somewhere; the sample as a whole holds those more often. Active and inactive are the calls of the source. How the source made its calls: active means growth percent below 10; inactive means the rest.
Write down one outcome, taken from 1 = active, 0 = inactive

CCN(CC)CCOc1ccc(-c2nc3cc(Cl)ccc3s2)cc1: 1
O=C(/C=C\c1cc(Br)ccc1O)/C=C/c1cc(Br)ccc1O: 1
Cn1c2c(c3ccccc31)CCN1C[C@@H]3CCCC[C@H]3C[C@@H]21: 1
Cc1ccc2nc(C[n+]3ccc4ccccc4c3)ccc2c1: 0
Cn1c2ccccc2c2nnc(N/N=C/c3ccccn3)nc21: 0

Entry COc1cc(/C=C(/C)C[N+](=O)[O-])ccc1O : call = ?
0

Entry COC(=O)[C@@]12OC[C@]34[C@H]([C@@H](O)[C@@H]1O)[C@@]1(C)[C@H](O)C(=O)C=C(C)[C@@H]1C[C@H]3OC(=O)C(OC(C)=O)[C@@H]24 (some centres not stated) : call = ?
1

Entry CC(=O)C(=Cc1ccc(C=C(C(C)=O)C(C)=O)cc1)C(C)=O : call = ?
0

====

- System: NCI-H23 lung
- experiment.description: NCI-60 one-dose screen, 48 h (100 = growth as untreated, 0 = no growth, -100 = all killed)
- settings: 10 µM unless noted
The panel holds about 83,000 compounds, 20% with a hit somewhere; the sample as a whole holds those more often.
outcome.measure: growth (%)
One number for each entry, in %.

C[n+]1c(/C=C/c2ccc([N+](=O)[O-])cc2)ccc2ccccc21: 90.4

State the recorded growth for every item in the following list.
1. O=C1c2ccccc2C(=O)c2sc(Nc3ccc(Cl)cc3)nc21
2. CCOC(=O)/C=C/c1ccc([N+](=O)[O-])o1
3. CCCCCCCCCCCCCCCC[N+](C)(CCO)Cc1cnc[nH]1 (stereo unspecified)
4. N#Cc1ccc([N+](=O)[O-])o1
5. Cc1ccc(N=C=C(c2ccccc2)c2ccccc2)cc1

1. -53.2
2. 73.7
3. -3.12
4. 112
5. 81

====

What growth was measured for each of the following?
- Test system: A498 renal
- experiment.description: NCI-60 one-dose screen, 48 h (100 = growth as untreated, 0 = no growth, -100 = all killed)
- settings: 10 µM unless noted
Compounds without any hit were thinned out: in the full panel of roughly 83,000, 20% have a hit. Calls of active or inactive are those of the source. Rule for the calls: active = growth percent below 10; inactive = the rest.

Some compounds with recorded growth:
O=C1OCc2cccc3cccc1c23: 83.5% (inactive)
O=C1c2ccccc2C(=O)c2sc(Nc3ccc(Cl)cc3)nc21: 87.3% (inactive)

Could you now consider this next compound?
Summary for this compound, O=C(Nc1ccccc1)c1cc(Cl)ccc1O : growth is -4.6% (active)

====

- Test system: OVCAR-4 ovarian
- experiment.description: NCI-60 one-dose screen, 48 h
- settings: 10 µM unless noted
- Procedure: Growth inhibition of the OVCAR-4 human tumor cell line is measured as a screen for anti-cancer activity. Cells are grown in 96 well plates and exposed to the test compound for 48 hours. Compounds are tested at a single concentration, which is 10^-5 M for most compounds. The reported endpoint is percent growth (GI% or GIPRCNT), where numbers from 0 - 100% represent growth inhibition, and numbers from -100% - 0 represent cell death. For example, a value of 40 represents 60% growth inhibition. […]
The panel holds about 83,000 compounds, 20% with a hit somewhere; the sample as a whole holds those more often. The source made the active and inactive calls. Rule for the calls: active = growth percent below 10; inactive = the rest.
Write down one outcome, taken from active, inactive

Reference set, count: 5
CCN(CC)CCOc1ccc(-c2nc3cc(Cl)ccc3s2)cc1: inactive
Cc1c2ccccc2c(C)c2c1ccc1ccccc12: inactive
O=C1c2ccccc2C(=O)c2sc(Nc3ccc(Cl)cc3)nc21: active
O=C(/C=C/C=C/c1ccccc1)c1ccco1: inactive
O[C@H]1[C@H]2c3cc4c(cc3CN3CCC(=C[C@@H]1O)[C@H]23)OCO4: inactive

Entry Cc1ccc(C(=Nc2ccccc2)N=P(c2ccccc2)(c2ccccc2)c2ccccc2)cc1 : call = ?
inactive

Entry CCC(=O)Sc1ccccc1C(=O)Nc1ccc(Cl)cc1 : call = ?
inactive

Entry N#CSCc1ccc(Cl)c(CSC#N)c1 : call = ?
inactive

Entry C[n+]1c(/C=C/c2ccc([N+](=O)[O-])cc2)ccc2ccccc21 : call = ?
inactive

Entry Cn1c2c(c3ccccc31)CCN1C[C@@H]3CCCC[C@H]3C[C@@H]21 : call = ?
inactive

Entry N[C@H](C(=O)O)[C@@H]1CC(Cl)=NO1 : call = ?
inactive

====

- Test system: A549/ATCC NSCLC
- experiment.description: NCI-60 one-dose screen, 48 h (100 = growth as untreated, 0 = no growth, -100 = all killed)
- settings: 10 µM unless noted
About 83,000 compounds went through this panel and 20% of them were active in at least one assay; those are over-represented in the sample as a whole.
What growth was measured for each of the following?
Numbers only, in %.

Some molecules with recorded growth:
O=C1c2ccccc2C(=O)c2sc(Nc3cccc(Cl)c3)nc21: 30.7
O=C(/C=C\c1ccccc1)N1c2ccccc2CC1c1c[nH]c2ccccc12 (centres undefined): 64.5
COC(=O)[C@@]12OC[C@]34[C@H]([C@@H](O)[C@@H]1O)[C@@]1(C)[C@H](O)C(=O)C=C(C)[C@@H]1C[C@H]3OC(=O)C(OC(C)=O)[C@@H]24 (some centres undefined): -19.4

State the recorded growth for every item in the following list.
1. CCOc1ccc(-c2nc3ccc(-c4nc5ccc(N6CCN(C)CC6)cc5[nH]4)cc3[nH]2)cc1
2. O=C1NC(=O)/C(=C/C=C/c2ccccc2)S1
3. CCN1/C(=C\c2cc[n+](CC)c3ccccc23)C=Cc2ccccc21
4. CC(=Nc1ccc(N(C)C)cc1)c1ccccc1

1: -80.7; 2: 89.1; 3: 18.9; 4: 45.2

State the recorded growth for every item in the following list.
1. O=C(O)c1ccc2c3c(ncnc13)-c1ccccc1C2=O
2. CCCCCCCCCCCCCCNCc1ccccc1
3. COc1cc(/C=C(/C)C[N+](=O)[O-])ccc1O
4. CCC(c1cccc(O)c1)C(CC)c1cccc(O)c1 (centres undefined)
5. CCCCCCCCCCCCCCCC[N+](C)(CCO)Cc1cnc[nH]1 (centres undefined)
6. OC(CNc1ccnc2cc(Cl)ccc12)CNc1ccnc2cc(Cl)ccc12
7. COc1ccc2nc3cc(Cl)ccc3c(NCCNc3c4ccc(Cl)cc4nc4ccc(OC)cc34)c2c1

[-6.25, 108, 85.9, 67.8, -36.1, 95.3, -74.5]
